target: HiBit-BRG1 fusion protein (Homo sapiens, UniProt P51532); construct: expressed in transfected cells; assay: HiBiT-BRG1 cell-based degradation assay (Nano-Glo HiBiT Lytic Detection, 24 h); conditions: stable HeLa cell line expressing HiBit-BRG1 and LgBit, read-out: BRG1 HiBit Degradation Maximum (%)
Sequence (P51532 whole entry, the tested form may be a part): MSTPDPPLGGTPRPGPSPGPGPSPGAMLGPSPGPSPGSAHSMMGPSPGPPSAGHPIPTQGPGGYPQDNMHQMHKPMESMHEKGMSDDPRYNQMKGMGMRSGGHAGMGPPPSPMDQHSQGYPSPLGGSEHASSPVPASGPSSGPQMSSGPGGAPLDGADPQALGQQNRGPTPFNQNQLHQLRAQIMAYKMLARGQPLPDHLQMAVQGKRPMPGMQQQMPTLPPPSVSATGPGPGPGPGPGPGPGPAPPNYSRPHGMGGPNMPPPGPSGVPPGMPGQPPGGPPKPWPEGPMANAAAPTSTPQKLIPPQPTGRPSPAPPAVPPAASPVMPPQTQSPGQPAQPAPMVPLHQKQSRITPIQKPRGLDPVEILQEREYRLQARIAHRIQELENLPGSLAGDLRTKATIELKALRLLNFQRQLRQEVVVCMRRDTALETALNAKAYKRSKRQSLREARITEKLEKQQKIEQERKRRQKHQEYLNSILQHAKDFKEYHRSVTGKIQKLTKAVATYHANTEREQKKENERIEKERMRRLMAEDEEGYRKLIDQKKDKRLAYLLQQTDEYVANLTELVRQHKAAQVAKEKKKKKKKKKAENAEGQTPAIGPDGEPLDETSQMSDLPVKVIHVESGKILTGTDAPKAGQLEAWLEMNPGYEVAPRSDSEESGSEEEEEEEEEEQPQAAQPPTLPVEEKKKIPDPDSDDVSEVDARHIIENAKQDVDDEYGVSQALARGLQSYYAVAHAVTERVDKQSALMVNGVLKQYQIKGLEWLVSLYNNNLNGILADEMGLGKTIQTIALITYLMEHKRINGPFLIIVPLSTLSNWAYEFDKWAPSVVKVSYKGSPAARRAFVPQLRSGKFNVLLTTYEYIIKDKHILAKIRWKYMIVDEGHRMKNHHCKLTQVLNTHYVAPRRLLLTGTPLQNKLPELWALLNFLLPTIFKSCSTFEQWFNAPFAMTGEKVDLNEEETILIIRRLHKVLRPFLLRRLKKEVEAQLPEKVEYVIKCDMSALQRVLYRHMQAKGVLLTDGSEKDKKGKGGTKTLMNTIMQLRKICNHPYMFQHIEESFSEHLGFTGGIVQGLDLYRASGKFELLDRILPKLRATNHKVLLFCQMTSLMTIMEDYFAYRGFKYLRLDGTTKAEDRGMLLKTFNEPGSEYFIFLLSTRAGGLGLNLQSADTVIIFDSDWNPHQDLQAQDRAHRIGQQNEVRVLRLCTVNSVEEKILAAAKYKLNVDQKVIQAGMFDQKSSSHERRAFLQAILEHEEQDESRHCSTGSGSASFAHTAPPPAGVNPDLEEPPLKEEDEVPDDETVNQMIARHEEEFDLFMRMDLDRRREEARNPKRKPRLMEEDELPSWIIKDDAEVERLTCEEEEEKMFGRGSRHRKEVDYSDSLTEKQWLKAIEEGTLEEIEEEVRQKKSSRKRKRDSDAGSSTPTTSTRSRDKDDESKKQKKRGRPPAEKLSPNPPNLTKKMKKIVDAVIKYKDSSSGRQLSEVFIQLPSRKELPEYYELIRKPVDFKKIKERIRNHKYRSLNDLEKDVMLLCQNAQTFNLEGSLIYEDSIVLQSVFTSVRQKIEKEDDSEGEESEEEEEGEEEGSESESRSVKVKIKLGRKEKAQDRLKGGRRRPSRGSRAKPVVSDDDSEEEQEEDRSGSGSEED
Catalogue of Dmax values

* Cc1cc(-c2cc([C@H](C(=O)N3C[C@H](O)C[C@H]3C(=O)N[C@@H](C)c3ccc(-c4scnc4C)cc3)C(C)C)on2)ccc1N1CCC(c2sc3nnc(-c4ccccc4O)cc3c2C)CC1 (single isomer, unassigned) | < 50%

Now, please, on to the next molecule.
Task item: Missing value: Dmax, HiBit-BRG1 fusion protein (Homo sapiens, UniProt P51532), entry Cc1ncsc1-c1ccc([C@H](C)NC(=O)[C@@H]2C[C@@H](O)CN2C(=O)[C@@H](c2cc(N3CC4(CC(c5cc6nnc(-c7ccccc7O)cc6s5)C4)C3)no2)C(C)C)cc1 . Fill in?
Reply: > 75%
